Source of measurements: paper doi:10.1101/2023.05.15.540828

molecular target: CSNK2A1 (Homo sapiens); construct: CSNK2A-NLuc fusion; experiment: NanoBRET in-cell target engagement, Tracer K10 displacement, HEK293; assay type: cell-based
Sequence (P68400 whole entry, the tested form may be a part): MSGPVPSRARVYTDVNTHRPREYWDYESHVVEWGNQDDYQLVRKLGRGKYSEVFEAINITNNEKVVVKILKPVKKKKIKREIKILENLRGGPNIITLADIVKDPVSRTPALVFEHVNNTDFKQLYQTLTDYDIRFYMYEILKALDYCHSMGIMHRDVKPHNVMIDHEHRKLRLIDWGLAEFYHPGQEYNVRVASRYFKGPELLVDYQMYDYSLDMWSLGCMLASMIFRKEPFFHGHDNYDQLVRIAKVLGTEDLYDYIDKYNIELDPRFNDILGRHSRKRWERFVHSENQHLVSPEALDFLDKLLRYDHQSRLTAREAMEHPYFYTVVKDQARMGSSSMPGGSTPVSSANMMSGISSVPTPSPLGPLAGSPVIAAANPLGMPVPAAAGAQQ
Each entry below carries its reported [drawing 10] / CSNK2A1 pIC50^a.
Measured Quantity: [drawing 10] / CSNK2A1 pIC50^a (pIC50)

[[record]]
structure_string = "CN[C@@H]1CCN(c2ccc(Nc3cc(NC4CC4)n4ncc(C#N)c4n3)cc2NC(C)=O)C1"
measured_quantity = "[drawing 10] / CSNK2A1 pIC50^a"
endpoint_unit = "pIC50"
endpoint_result = 8.6

[[record]]
structure_string = "CC(=O)Nc1cc(Nc2cc(NC3CC3)n3ncc(C#N)c3n2)ccc1N[C@@H]1CCCOC1"
measured_quantity = "[drawing 10] / CSNK2A1 pIC50^a"
endpoint_unit = "pIC50"
endpoint_result = 8.0

[[record]]
structure_string = "CN[C@H]1CCCN(c2ccc(Nc3cc(NC4CC4)n4ncc(C#N)c4n3)cc2NC(C)=O)C1"
measured_quantity = "[drawing 10] / CSNK2A1 pIC50^a"
endpoint_unit = "pIC50"
endpoint_result = 8.3

[[record]]
structure_string = "CN[C@H]1CCN(c2ccc(Nc3cc(NC4CC4)n4ncc(C#N)c4n3)cc2NC(C)=O)C1"
measured_quantity = "[drawing 10] / CSNK2A1 pIC50^a"
endpoint_unit = "pIC50"
endpoint_result = 8.3

[[record]]
structure_string = "CC(=O)Nc1cc(Nc2cc(NC3CC3)n3ncc(C#N)c3n2)ccc1N(C)C[C@@H]1CCCN1"
measured_quantity = "[drawing 10] / CSNK2A1 pIC50^a"
endpoint_unit = "pIC50"
endpoint_result = 8.4


* * *

molecular target: CSNK2A2 (Homo sapiens); construct: CSNK2A-NLuc fusion; test: NanoBRET in-cell target engagement, Tracer K10 displacement, HEK293; format: cell-based
Sequence (P19784 whole entry, the tested form may be a part): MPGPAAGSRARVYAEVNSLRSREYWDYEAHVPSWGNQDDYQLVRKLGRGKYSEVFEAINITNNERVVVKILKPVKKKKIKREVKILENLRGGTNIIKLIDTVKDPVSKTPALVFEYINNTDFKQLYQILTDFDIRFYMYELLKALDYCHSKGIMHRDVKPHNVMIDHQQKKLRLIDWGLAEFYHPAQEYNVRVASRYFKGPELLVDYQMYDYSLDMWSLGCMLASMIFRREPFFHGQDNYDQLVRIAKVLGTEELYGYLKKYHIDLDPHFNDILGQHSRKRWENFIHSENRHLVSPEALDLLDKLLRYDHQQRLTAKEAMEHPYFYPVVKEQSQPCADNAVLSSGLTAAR
Measured [drawing 10] / CSNK2A2 pIC50^a, listed per entry.
Measured Quantity: [drawing 10] / CSNK2A2 pIC50^a (pIC50)

[[record]]
structure_string = "CN[C@@H]1CCN(c2ccc(Nc3cc(NC4CC4)n4ncc(C#N)c4n3)cc2NC(C)=O)C1"
test_system = "CSNK2A2 (Homo sapiens)"
measured_quantity = "[drawing 10] / CSNK2A2 pIC50^a"
endpoint_result = 8.8

[[record]]
structure_string = "CN[C@H]1CCN(c2ccc(Nc3cc(NC4CC4)n4ncc(C#N)c4n3)cc2NC(C)=O)C1"
test_system = "CSNK2A2 (Homo sapiens)"
measured_quantity = "[drawing 10] / CSNK2A2 pIC50^a"
endpoint_result = 8.4

[[record]]
structure_string = "CC(=O)Nc1cc(Nc2cc(NC3CC3)n3ncc(C#N)c3n2)ccc1N(C)C[C@@H]1CCCN1"
test_system = "CSNK2A2 (Homo sapiens)"
measured_quantity = "[drawing 10] / CSNK2A2 pIC50^a"
endpoint_result = 8.5

[[record]]
structure_string = "CN[C@H]1CCCN(c2ccc(Nc3cc(NC4CC4)n4ncc(C#N)c4n3)cc2NC(C)=O)C1"
test_system = "CSNK2A2 (Homo sapiens)"
measured_quantity = "[drawing 10] / CSNK2A2 pIC50^a"
endpoint_result = 8.4

[[record]]
structure_string = "CC(=O)Nc1cc(Nc2cc(NC3CC3)n3ncc(C#N)c3n2)ccc1N[C@@H]1CCCOC1"
test_system = "CSNK2A2 (Homo sapiens)"
measured_quantity = "[drawing 10] / CSNK2A2 pIC50^a"
endpoint_result = 8.1

